assay: Caspase-3/7 induction in HepG2 cells by small molecules, qHTS cell viability counter screen (AID 1346981); details: CellTiter-Fluor fluorescence, 17 h; series mostly up to 92.4 µM; note: nearly all actives have a fitted effect of over 30% in size
Results filed as inconclusive are left out. Active and inactive are the calls of the source. Calls come from the whole dose curve; as a rule, active = well fitted cell-killing curve with a large enough effect in the repeat runs; inconclusive = weak or mixed curves, or effect the other way; inactive = flat fitted curve, though single readings scatter.
attribute-measured: outcome

>  <compound>
OC1CCCC1

>  <readout-value>
inactive

$$$$
>  <compound>
COCC(=O)O

>  <readout-value>
inactive

$$$$
>  <compound>
CCCCC(CC)COC(=O)CCCCCCCC(=O)OCC(CC)CCCC (stereo unspecified)

>  <readout-value>
inactive

$$$$
>  <compound>
CCCCCCOC(C)=O

>  <readout-value>
inactive

$$$$

For O=C1CCCCC1 the compound record lists outcome as inactive

For C=C(C)C(=O)OCC(CC)(COC(=O)C(=C)C)COC(=O)C(=C)C the compound record lists outcome as inactive
